# target_or_system: huTfR Apical Domain-Avi-His (human)
# Sequence (chain, as listed by the source limits assumed): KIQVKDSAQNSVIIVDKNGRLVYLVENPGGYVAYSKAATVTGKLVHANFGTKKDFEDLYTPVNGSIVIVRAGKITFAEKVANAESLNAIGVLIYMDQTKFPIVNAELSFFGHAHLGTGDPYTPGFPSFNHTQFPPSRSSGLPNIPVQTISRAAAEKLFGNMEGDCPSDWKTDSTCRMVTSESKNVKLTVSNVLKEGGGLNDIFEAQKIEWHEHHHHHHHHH
# method: SPR (Carterra LSA), 2+2 captured
measured_attribute: Kd
Answer by giving the amount and then stating its unit.

### Prompt Can you look up the measured Kd of TFR.15.WH8.1.42Q 2+2 anti-TfR bispecific antibody (bispecific antibody, part only; not given: isotype IgG backbone and linker, not shown: another chain or arm of the molecule; a dimerising Fc or GST; large carriers; small tags and cut ends) scFv: QVQLVQSGAEVKKPGASVKVSCKASGYTFTSYYMHWVRQAPGQGLEWMGNIYPGSGSSNYAQKFQGRVTMTRDTSTSTVYMELSSLRSEDTAVYYCTRSSYYGNFDTMDNWGQGTTVTVSSGGSEGKSSGSGSESKSTGGSEIVLTQSPATLSLSPGERATLSCRASSSIRQMNWYQQKPGQAPRRLIYDTSNRATGIPARFSGSGSGTDFTLTISSLEPEDFAVYYCHQRSSYPWTFGGGTKVEIK for me?
### Response 62 nM

### Prompt Can you look up the measured Kd of TFR.15.WH8.1.42S 2+2 anti-TfR bispecific antibody (bispecific antibody, part only; not given: isotype IgG backbone and linker, not shown: another chain or arm of the molecule; a dimerising Fc or GST; large carriers; small tags and cut ends) scFv: QVQLVQSGAEVKKPGASVKVSCKASGYTFTSYYMHWVRQAPGQGLEWMGNIYPGSGSSNYAQKFQGRVTMTRDTSTSTVYMELSSLRSEDTAVYYCTRSSYYGNFDTMDNWGQGTTVTVSSGGSEGKSSGSGSESKSTGGSEIVLTQSPATLSLSPGERATLSCRASSSIRSMNWYQQKPGQAPRRLIYDTSNRATGIPARFSGSGSGTDFTLTISSLEPEDFAVYYCHQRSSYPWTFGGGTKVEIK for me?
### Response 510 nM

### Prompt Can you look up the measured Kd of TFR.15.WH8.1.24N 2+2 anti-TfR bispecific antibody (bispecific antibody, part only; not given: isotype IgG backbone and linker, not shown: another chain or arm of the molecule; a dimerising Fc or GST; large carriers; small tags and cut ends) scFv: QVQLVQSGAEVKKPGASVKVSCKASGYTFTSYYMHWVRQAPGQGLEWMGNIYPGSGSSNYAQKFQGRVTMTRDTSTSTVYMELSSLRSEDTAVYYCTRSNYYGNFDTMDNWGQGTTVTVSSGGSEGKSSGSGSESKSTGGSEIVLTQSPATLSLSPGERATLSCRASSSIRYMNWYQQKPGQAPRRLIYDTSNRATGIPARFSGSGSGTDFTLTISSLEPEDFAVYYCHQRSSYPWTFGGGTKVEIK for me?
### Response 140 nM
